System: HCT-116 (Colorectal Carcinoma)
Assay: combination Emax (second highest fraction inhibited in the dose matrix, 72 h); higher = more inhibition; extreme values may be limits of the assay

[
  {
    "molecule": "C[C@@H]1COCCN1c1cc(C2([S@](C)(=N)=O)CC2)nc(-c2ccnc3[nH]ccc23)n1 [AZD6738] + Nc1ccn([C@@H]2O[C@H](CO)[C@@H](O)C2(F)F)c(=O)n1 [Gemcitabine] (first compound max 10 µM, 7x7, partner max 0.3 µM)",
    "combination Emax": 0.947
  },
  {
    "molecule": "C[C@@H](c1ccc2nccn2c1)n1nnc2ncc(-c3cnn(C)c3)nc21 [Savolitinib] + Cc1c2c(nn1C)CSCc1cc(n(C)n1)CSc1cc(c3ccccc3c1)OCCCc1c(C(=O)O)n(C)c3c-2c(Cl)ccc13 [AZD5991] (first compound max 1 µM, 7x7, partner max 1 µM)",
    "combination Emax": 0.162
  },
  {
    "molecule": "N#Cc1cnc(Nc2cc(NC[C@H]3CNCCO3)c(C(F)(F)F)cn2)cn1 [SRA737] + O=c1[nH]cc(F)c(=O)[nH]1 [5-Fluorouracil] (first compound max 10 µM, 7x7, partner max 20 µM)",
    "combination Emax": 0.737
  },
  {
    "molecule": "Cc1c2c(nn1C)CSCc1cc(n(C)n1)CSc1cc(c3ccccc3c1)OCCCc1c(C(=O)O)n(C)c3c-2c(Cl)ccc13 [AZD5991] + C[C@@H]1COCCN1C2=NC(=NC(=C2)C3(CC3)[S@](=N)(=O)C)C4=C5C=CNC5=NC=C4 [AZD6738] (first compound max 1 µM, 7x7, partner max 10 µM)",
    "combination Emax": 0.63
  }
]

---

Tested on: TYK-nu (Ovarian Carcinoma)
Experiment: combination Emax (second highest fraction inhibited in the dose matrix, 72 h); higher = more inhibition; extreme values may be limits of the assay
Each entry below lists one item and its recorded combination Emax value.
attribute measured: combination Emax

[
  {
    "compound": "C[C@@H](c1ccc2nccn2c1)n1nnc2ncc(-c3cnn(C)c3)nc21 [Savolitinib] + CN(CC[C@H](CSC1=CC=CC=C1)NC2=C(C=C(C=C2)S(=O)(=O)NC(=O)C3=CC=C(C=C3)N4CCC(CC4)[C@H](C5=CC=CC=C5C6=CC=C(C=C6)Cl)O)S(=O)(=O)C(F)(F)F)CCO [AZD4320] (first compound max 1 µM, 7x7, partner max 1 µM)",
    "attribute measured": "combination Emax",
    "result": 0.283
  },
  {
    "compound": "COc1cccc2c1C(=O)c1c(O)c3c(c(O)c1C2=O)C[C@@](O)(C(=O)CO)C[C@@H]3O[C@H]1C[C@H](N)[C@H](O)[C@H](C)O1 [Doxorubicin] + Cc1cc2ncnn2cc1Nc1ncc2c(n1)n(C1CCOCC1)c(=O)n2C [AZD7648] (first compound max 1 µM, 7x7, partner max 10 µM)",
    "attribute measured": "combination Emax",
    "result": 0.704
  },
  {
    "compound": "COc1nnc2ccc(N3CCC(c4ccc(OCCN5CCN(C)C(=O)[C@H]5C)cc4)CC3)nn12 [AZD5153] + C=CCn1c(=O)c2cnc(Nc3ccc(N4CCN(C)CC4)cc3)nc2n1-c1cccc(C(C)(C)O)n1 [AZD1775] (first compound max 1 µM, partner max 1 µM)",
    "attribute measured": "combination Emax",
    "result": 0.772
  },
  {
    "compound": "CN(CCO)CC[C@H](CSc1ccccc1)Nc1ccc(S(=O)(=O)NC(=O)c2ccc(N3CCC([C@@H](O)c4ccccc4-c4ccc(Cl)cc4)CC3)cc2)cc1S(=O)(=O)C(F)(F)F [AZD4320] + CN(C)CCCOc1ccc(-c2ccc3ncc4c(c3c2)n(C2CCOCC2)c(=O)n4C)cn1 [AZD0156] (first compound max 1 µM, 7x7, partner max 1 µM)",
    "attribute measured": "combination Emax",
    "result": 0.165
  },
  {
    "compound": "COc1nnc2ccc(N3CCC(c4ccc(OCCN5CCN(C)C(=O)[C@H]5C)cc4)CC3)nn12 [AZD5153] + Cc1c2c(nn1C)CSCc1cc(n(C)n1)CSc1cc(c3ccccc3c1)OCCCc1c(C(=O)O)n(C)c3c-2c(Cl)ccc13 [AZD5991] (first compound max 1 µM, 7x7, partner max 1 µM)",
    "attribute measured": "combination Emax",
    "result": 0.646
  },
  {
    "compound": "COc1cccc(OCCCN)c1-c1cc(Nc2cnc(C#N)cn2)n[nH]1 [Prexasertib] + CCc1c2c(nc3ccc(O)cc13)-c1cc3c(c(=O)n1C2)COC(=O)[C@]3(O)CC [SN-38] (first compound max 1 µM, 7x7, partner max 0.3 µM)",
    "attribute measured": "combination Emax",
    "result": 0.861
  },
  {
    "compound": "CN(CCO)CC[C@H](CSc1ccccc1)Nc1ccc(S(=O)(=O)NC(=O)c2ccc(N3CCC([C@@H](O)c4ccccc4-c4ccc(Cl)cc4)CC3)cc2)cc1S(=O)(=O)C(F)(F)F [AZD4320] + C1CN(CCC1(C(=O)N[C@@H](CCO)C2=CC=C(C=C2)Cl)N)C3=NC=NC4=C3C=CN4 [Capivasertib] (first compound max 1 µM, 7x7, partner max 3 µM)",
    "attribute measured": "combination Emax",
    "result": 0.244
  },
  {
    "compound": "Cc1c2c(nn1C)CSCc1cc(n(C)n1)CSc1cc(c3ccccc3c1)OCCCc1c(C(=O)O)n(C)c3c-2c(Cl)ccc13 [AZD5991] + C=CCn1c(=O)c2cnc(Nc3ccc(N4CCN(C)CC4)cc3)nc2n1-c1cccc(C(C)(C)O)n1 [AZD1775] (first compound max 1 µM, partner max 1 µM)",
    "attribute measured": "combination Emax",
    "result": 0.761
  },
  {
    "compound": "CN(CCO)CC[C@H](CSc1ccccc1)Nc1ccc(S(=O)(=O)NC(=O)c2ccc(N3CCC([C@@H](O)c4ccccc4-c4ccc(Cl)cc4)CC3)cc2)cc1S(=O)(=O)C(F)(F)F [AZD4320] + C[C@@H]1COCCN1C2=NC(=NC(=C2)C3(CC3)[S@](=N)(=O)C)C4=C5C=CNC5=NC=C4 [AZD6738] (first compound max 1 µM, 7x7, partner max 10 µM)",
    "attribute measured": "combination Emax",
    "result": 0.803
  },
  {
    "compound": "CN(CCO)CC[C@H](CSc1ccccc1)Nc1ccc(S(=O)(=O)NC(=O)c2ccc(N3CCC([C@@H](O)c4ccccc4-c4ccc(Cl)cc4)CC3)cc2)cc1S(=O)(=O)C(F)(F)F [AZD4320] + Cn1cnc2c(F)c(Nc3ccc(Br)cc3Cl)c(C(=O)NOCCO)cc21 [Selumetinib] (first compound max 1 µM, 7x7, partner max 3 µM)",
    "attribute measured": "combination Emax",
    "result": 0.619
  },
  {
    "compound": "C[C@@H](c1ccc2nccn2c1)n1nnc2ncc(-c3cnn(C)c3)nc21 [Savolitinib] + CC1(C)CCC(CN2CCN(c3ccc(C(=O)NS(=O)(=O)c4ccc(NCC5CCOCC5)c([N+](=O)[O-])c4)c(Oc4cnc5[nH]ccc5c4)c3)CC2)=C(c2ccc(Cl)cc2)C1 [Venetoclax] (first compound max 1 µM, 7x7, partner max 1 µM)",
    "attribute measured": "combination Emax",
    "result": 0.168
  },
  {
    "compound": "Cc1cc2ncnn2cc1Nc1ncc2c(n1)n(C1CCOCC1)c(=O)n2C [AZD7648] + C=CCn1c(=O)c2cnc(Nc3ccc(N4CCN(C)CC4)cc3)nc2n1-c1cccc(C(C)(C)O)n1 [AZD1775] (first compound max 10 µM, partner max 1 µM)",
    "attribute measured": "combination Emax",
    "result": 0.695
  }
]

---

Quick reference for Bliss excess among some molecules
Tested on: HCC-827 (Lung Adenocarcinoma);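 note: after 72 h of two-drug dosing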
Assay: Bliss excess, mean over the matrix (fraction); higher = more synergy
attribute measured: Bliss excess

[
  {
    "molecule": "Cc1cc2ncnn2cc1Nc1ncc2c(n1)n(C1CCOCC1)c(=O)n2C [AZD7648] + C[C@@H]1COCCN1C2=NC(=NC(=C2)C3(CC3)[S@](=N)(=O)C)C4=C5C=CNC5=NC=C4 [AZD6738] (first compound max 10 µM, 7x7, partner max 10 µM)",
    "tested target": "HCC-827 (Lung Adenocarcinoma)",
    "numeric value": 0.0048
  },
  {
    "molecule": "COc1nnc2ccc(N3CCC(c4ccc(OCCN5CCN(C)C(=O)[C@H]5C)cc4)CC3)nn12 [AZD5153] + Cc1c2c(nn1C)CSCc1cc(n(C)n1)CSc1cc(c3ccccc3c1)OCCCc1c(C(=O)O)n(C)c3c-2c(Cl)ccc13 [AZD5991] (first compound max 1 µM, 7x7, partner max 1 µM)",
    "tested target": "HCC-827 (Lung Adenocarcinoma)",
    "numeric value": -0.0225
  },
  {
    "molecule": "COc1nnc2ccc(N3CCC(c4ccc(OCCN5CCN(C)C(=O)[C@H]5C)cc4)CC3)nn12 [AZD5153] + CN(CC[C@H](CSC1=CC=CC=C1)NC2=C(C=C(C=C2)S(=O)(=O)NC(=O)C3=CC=C(C=C3)N4CCC(CC4)[C@H](C5=CC=CC=C5C6=CC=C(C=C6)Cl)O)S(=O)(=O)C(F)(F)F)CCO [AZD4320] (first compound max 1 µM, 7x7, partner max 1 µM)",
    "tested target": "HCC-827 (Lung Adenocarcinoma)",
    "numeric value": 0.0292
  },
  {
    "molecule": "COc1cccc(OCCCN)c1-c1cc(Nc2cnc(C#N)cn2)n[nH]1 [Prexasertib] + Cc1cc2ncnn2cc1Nc1ncc2c(n1)n(C1CCOCC1)c(=O)n2C [AZD7648] (first compound max 1 µM, 7x7, partner max 10 µM)",
    "tested target": "HCC-827 (Lung Adenocarcinoma)",
    "numeric value": 0.0186
  },
  {
    "molecule": "CN(CCO)CC[C@H](CSc1ccccc1)Nc1ccc(S(=O)(=O)NC(=O)c2ccc(N3CCC([C@@H](O)c4ccccc4-c4ccc(Cl)cc4)CC3)cc2)cc1S(=O)(=O)C(F)(F)F [AZD4320] + CCN(CCO)CCCOc1ccc2c(Nc3cc(CC(=O)Nc4cccc(F)c4)[nH]n3)ncnc2c1 [AZD2811] (first compound max 1 µM, 7x7, partner max 1 µM)",
    "tested target": "HCC-827 (Lung Adenocarcinoma)",
    "numeric value": -0.0596
  }
]
